- Test system: EKVX NSCLC
- Method notes: NCI tumour cell line growth inhibition, 48 h
Quantity: TGI

Some entries whose results are on file:
Compound	Assay value
O=c1oc(C(C(F)(F)F)C(F)(F)F)nc2ccccc12	> 100 µM
C/C(=N\NC(=S)N(C)C)c1cccnn1	10.4 µM

Q. Need TGI, item CCOP(=O)(O)CN1CCNCCN(CP(=O)(O)OCC)CCNCC1
A. > 100 µM

Q. Further, for O=C(Nn1c(-c2ccccc2)nc2ccccc2c1=O)c1ccccc1O ?
A. > 100 µM

Q. Further, for O=c1[nH]c2ccccc2n1CCCN1CCC(n2c(=O)[nH]c3cc(Cl)ccc32)CC1 ?
A. 42.7 µM

Q. Further, for CN1CC2=C(NC(=S)NC2c2ccccc2)/C(=C/c2ccccc2)C1 (stereo unspecified) ?
A. > 100 µM
